biological target: Nociceptin receptor (Mus musculus); experiment: Inhibition of electrically evoked contraction of mouse vas deferens
Sequence (P35377 whole entry): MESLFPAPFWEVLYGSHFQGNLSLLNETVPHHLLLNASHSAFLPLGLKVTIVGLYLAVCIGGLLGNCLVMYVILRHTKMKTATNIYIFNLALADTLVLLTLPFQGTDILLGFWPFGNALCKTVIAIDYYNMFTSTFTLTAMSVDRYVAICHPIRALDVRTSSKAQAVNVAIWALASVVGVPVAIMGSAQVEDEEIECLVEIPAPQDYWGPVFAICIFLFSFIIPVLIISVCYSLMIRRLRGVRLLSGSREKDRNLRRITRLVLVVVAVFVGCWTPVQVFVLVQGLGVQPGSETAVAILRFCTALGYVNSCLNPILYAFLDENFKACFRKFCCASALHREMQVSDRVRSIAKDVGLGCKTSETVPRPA
Numbered stars: 1 amine (or outer) side, 2 acyl side, 3 side chain; on linkers, the order of the positions; unused ones are H or OH. Square brackets hold non-standard residues; d marks the D form. Peptide text beside a SMILES is read from it. X1 = N[C@@H](Cc1ccccc1)CN(CC(=O)[*:2])[*:1]; Phe(4-F) = N[C@@H](Cc1ccc(F)cc1)C(=O)O
Below, each of the compounds is paired with its reported pEC50 value.
Reminder that pEC50 is minus the log10 of a molar concentration.

Reference set (3 entries):
CC(C)C[C@H](NC(=O)[C@H](CCCCN)NC(=O)[C@H](CCCN=C(N)N)NC(=O)[C@H](C)NC(=O)[C@H](CO)NC(=O)[C@H](CCCCN)NC(=O)[C@H](CCCN=C(N)N)NC(=O)[C@H](C)NC(=O)CNC(=O)[C@@H](NC(=O)[C@H](Cc1ccc(F)cc1)NC(=O)CNC(=O)CNC(=O)[C@@H](N)Cc1ccccc1)[C@@H](C)O)C(=O)N[C@@H](C)C(=O)N[C@@H](CC(N)=O)C(=O)N[C@@H](CCC(N)=O)C(N)=O ... 8.59
C[C@H](NC(=O)CNC(=O)[C@@H](NC(=O)[C@H](Cc1ccc(F)cc1)NC(=O)CNC(=O)CNC[C@@H](N)Cc1ccccc1)[C@@H](C)O)C(=O)N[C@@H](CCCN=C(N)N)C(=O)N[C@@H](CCCCN)C(=O)N[C@@H](CO)C(=O)N[C@@H](C)C(=O)N[C@@H](CCCN=C(N)N)C(=O)N[C@@H](CCCCN)C(=O)N[C@@H](CCCN=C(N)N)C(=O)N[C@@H](CCCCN)C(=O)N[C@@H](CC(N)=O)C(=O)N[C@@H](CCC(N)=O)C(N)=O (H-[X1]G[Phe(4-F)]TGARKSARKRKNQ-NH2) ... 8.99
C[C@H](NC(=O)CNC(=O)[C@@H](NC(=O)[C@H](Cc1ccc(F)cc1)NC(=O)CNC(=O)CNC(=O)[C@@H](N)Cc1ccccc1)[C@@H](C)O)C(=O)N[C@@H](CCCNC(=N)N)C(=O)N[C@@H](CCCCN)C(=O)N[C@@H](CO)C(=O)N[C@@H](C)C(=O)N[C@@H](CCCNC(=N)N)C(=O)N[C@@H](CCCCN)C(=O)N[C@@H](CCCNC(=N)N)C(=O)N[C@@H](CCCCN)C(=O)N[C@@H](CC(N)=O)C(=O)N[C@@H](CCC(N)=O)C(N)=O ... 9.36

### Prompt Note pEC50 for the compound shown: CC(C)C[C@H](NC(=O)[C@H](CCCCN)NC(=O)[C@H](CCCN=C(N)N)NC(=O)[C@H](C)NC(=O)[C@H](CO)NC(=O)[C@H](CCCCN)NC(=O)[C@H](CCCN=C(N)N)NC(=O)[C@H](C)NC(=O)CNC(=O)[C@@H](NC(=O)[C@H](Cc1ccccc1)NC(=O)CNC(=O)CNC(=O)[C@@H](N)Cc1ccccc1)[C@@H](C)O)C(=O)N[C@@H](C)C(=O)N[C@@H](CC(N)=O)C(=O)N[C@@H](CCC(N)=O)C(=O)O
### Response 8.27

### Prompt Note pEC50 for the compound shown: C[C@H](NC(=O)CNC(=O)[C@@H](NC(=O)[C@H](Cc1ccccc1)NC(=O)CNC(=O)CNC(=O)[C@@H](N)Cc1ccccc1)[C@@H](C)O)C(=O)N[C@@H](CCCN=C(N)N)C(=O)N[C@@H](CCCCN)C(=O)N[C@@H](CO)C(=O)N[C@@H](C)C(=O)N[C@@H](CCCN=C(N)N)C(=O)N[C@@H](CCCCN)C(=O)N[C@@H](CCCN=C(N)N)C(=O)N[C@@H](CCCCN)C(=O)N[C@@H](CC(N)=O)C(=O)N[C@@H](CCC(N)=O)C(N)=O
### Response 9.12
